System: PPARg:RXRa DBDmut IVT, anti-RXR (DBD mutation: RXRa K156A/R161A, NR concentration 270 nM, RXRa partner concentration 90 nM)
Assay: PBM binding z-score (relative to random genomic background probes); higher = stronger binding; sequences stand for … in GC…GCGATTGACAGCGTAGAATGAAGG
Response key: met means PBM binding z-score >= 1; not met means PBM binding z-score < 1.

CGAACTAGATCAAGGACAGTGAATCTCCGCACGC | met
CGAACTAGGTCAAGGACAGTCAATCTCCGCACGC | met
TCATATAGTTAAATGCTAGGTGAAAGTCCGATCT | met
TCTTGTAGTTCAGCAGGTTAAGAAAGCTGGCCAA | met
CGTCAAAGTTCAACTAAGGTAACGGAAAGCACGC | not met
AGAATGAGGTAATTAAGATCAGGGAATTGCGGTC | met
TCGAGTAGGTTAGGAGCATTCAGAATGGCGTCGA | met
TTTGCTAGGTCAACGATGGTCAGCTAATCTGCTA | met
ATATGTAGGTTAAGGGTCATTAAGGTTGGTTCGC | met
TAGGCTAGGTCATTGGGCCAGTATAGTACGCATC | met

Task: Textbook exercise: given the entry "CCTAGTTAGTCAGGAGGTCACACACCGGATATGA" , state whether its PBM binding z-score is greater than or equal to 1.
Result: met
